experimental_details: qHTS for inhibitors of Vif-A3G interactions: Cherry picks; also: nearly all actives have a fitted effect of over 80% in size; also: potency is read from the fitted curve at half-maximal effect
experimental_parameters: HeLa A3G-eYFP + Vif (tagged APOBEC3G with the HIV-1 protein that degrades it), 24 h; eYFP fluorescence increase; series mostly up to 36.9 µM
The campaign covered roughly 2,100 compounds. About 650 (31%) were called active. Roughly 16% stayed inconclusive and do not appear here. The list shows a part of the results.
reported_endpoint: Potency

Before answering, review these 8 worked examples.
CC(=O)N/N=C/c1cc(C(C)(C)C)cc(/C=N/NC(C)=O)c1O : 23.1 µM (active)
C=CCNC(=S)N/N=C(\C)c1ccc(OC)cc1 : inactive
CC(C)(C)c1ccc(Cn2c(=O)cnc3ccccc32)cc1 : inactive
Nc1nonc1-c1nc2ccccc2n1Cc1ccc(F)cc1 : inactive
Cc1cccc(C(=O)NC(=S)N2CCc3ccccc3C2)c1 : inactive
O=[N+]([O-])c1ccc(N/N=C/c2c[nH]c3ccccc23)c(S(=O)(=O)Nc2ccc(Cl)cc2)c1 : 18.4 µM (active)
Cc1c(C(=O)OC2CCCCC2)[nH]c2c1C(=O)CC(c1ccccc1Cl)C2 (centres undefined) : inactive
Cn1c(=O)c2cc(NC(=O)Cc3cccc4ccccc34)ccc2n1-c1ccccc1 : inactive

Task item: Form field: reported Potency of "O=c1[nH]ncc2c3ccccc3n(Cc3cccc(Cl)c3)c12"
Reply: 23.1 µM (active)

Task item: Form field: reported Potency of "COc1ccc(-c2coc3cc4oc(=O)cc(-c5ccccc5)c4cc23)cc1F"
Reply: inactive

Task item: Form field: reported Potency of "COCCNC(=O)C(=O)Nc1ccc2c(c1)N(S(=O)(=O)c1cccs1)CCC2"
Reply: inactive

Task item: Form field: reported Potency of "CCOCCC(=O)Nc1ccc2c(c1)c(=O)n(C)n2C/C=C/c1ccccc1"
Reply: inactive

Task item: Form field: reported Potency of "C/C(=N/Nc1ccc([N+](=O)[O-])cc1)c1c[nH]c2ccccc12"
Reply: 8.2 µM (active)

Task item: Form field: reported Potency of "Cc1ccc2nc3c(cc(S(=O)(=O)c4ccccc4)c(=N)n3Cc3ccco3)c(=O)n2c1"
Reply: 29.1 µM (active)

Task item: Form field: reported Potency of "Cc1ccc(NC(=S)N=Nc2c(O)n(C)c3ccc(S(=O)(=O)N4CCOCC4)cc23)cc1"
Reply: inactive

Task item: Form field: reported Potency of "O=C(Nc1ccc(Cl)cc1)Nc1ccon1"
Reply: inactive

Task item: Form field: reported Potency of "COc1cc(/C=C(/C(=O)c2cccs2)c2nc3ccccc3[nH]2)ccc1O"
Reply: inactive

Ref: PubChem BioAssay AID651812
